Listed next: entries and their corresponding protein stability index.
B1: PCMTD2 (parent)
chain: FFIRTSDSFDKFDFCEPSFVTGNC

variants of: B1; experiment: protein stability index of a GFP-peptide fusion (GPS, HEK-293T) (PSI 1-6); higher = more stable; conditions: c terminus: a fixed tail appended;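 also: lentivirally expressed fusions sorted by FACS into six bins by GFP to DsRed ratio, PSI derived from sequencing read proportions per bin multiplied by bin number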
Could you keep your reply to the number by itself?

Example entries begin here.
F19L : 2.26
D13N : 2.42
P17Y : 3.1
T21F : 3.34
C24L : 2.66

As a next step, examine the variant that follows.
[in] Name the recorded protein stability index for `S18Y` .
[out] 2.11

The values you see were collected from the supplement of paper PMC10567573.
